# Test system: leukotriene pathway in human whole blood (LTB4 levels)
# protocolNotes: Human whole blood assay (LTB4)
# Format: cell-based
# details: human whole blood diluted 1:1 in RPMI, stimulated with calcium ionophore A23187; single replicate
Here, each record is paired with measured IC50 data.
Respond numerically; units are nM and should not be typed.

Recorded IC50, per entry:
INSERT INTO assay_data (compound, numericreadout) VALUES
  ('COc1c(C(C)(C)C)ccc(-c2cnc(N)cn2)c1F', 150),
  ('Nc1cnc(-c2ccc(C3CCC3)c(OCC(O)Cn3ccncc3=O)c2F)cn1 (racemic)', 909),
  ('Nc1cnc(-c2ccc(C3CCC3)c(Oc3ccnc(N)n3)c2F)cn1', 84.1),
  ('Nc1ncc(-c2ccc(C3CCC3)c(Oc3ccnc(N)n3)c2F)cn1', 129);

Report IC50 for Nc1cnc(-c2ccc(C3CCC3)c(OCC(O)CNc3ncccn3)c2F)cn1 (racemic)
644

Please look at this compound and report its IC50: NC(=O)c1cccc(COc2c(C3CCC3)ccc(-c3cnc4c(c3)OCCN4)c2F)c1
418

Could you please provide reported IC50 for Nc1cnc(Oc2c(C3CCC3)ccc(-c3cnc(N)cn3)c2F)nc1 ? Thanks!
35.9

###

# System: leukotriene pathway in human whole blood (LTB4 levels)
# protocolNotes: Human whole blood assay (LTB4)
# Assay type: cell-based
# details: human whole blood diluted 1:1 in RPMI, stimulated with calcium ionophore A23187; single replicate
pIC50: −log10 of the molar value. Where a name gives a salt, the structure may show the parent alone.
Tag: MET if measured pIC50 is not below 6, NOT MET if it is.

Please review the entries below; each comes with its answer.
INSERT INTO measurements (molecule, category) VALUES
  ('N#Cc1nccc(Oc2c(C3CCC3)ccc(-c3cnc(N)cn3)c2F)n1 [Example 234]', 'NOT MET'),
  ('Nc1cnc(-c2ccc(CC3CCCCC3)c(Oc3ncccn3)c2F)cn1 [Example 321]', 'NOT MET'),
  ('Nc1cnc(-c2ccc(C3CCC3)c(Oc3ccc(C(=O)O)cn3)c2F)cn1 [Example 154]', 'NOT MET'),
  ('COC(=O)c1ccc(Oc2c(C3CCC3)ccc(-c3cnc(N)cn3)c2F)nc1 [Example 107]', 'MET'),
  ('CC(C)(C)OC(=O)N1CC(COc2c(C3CCC3)ccc(-c3cnc(N)cn3)c2F)C1 [Example 246]', 'NOT MET'),
  ('N#Cc1cccc(COc2c(C3CCC3)ccc(-c3cnc(N)cn3)c2F)n1 [Example 292, trifluoroacetic acid salt]', 'MET'),
  ('CC(C)c1ccc(-c2cnc(N)cn2)c(F)c1Oc1ncccn1 [Example 318]', 'MET');

Here is the next item to consider.
Test whether the molecule Nc1cnc(-c2ccc(C3CCC3)c(OCc3ccc(C(=O)O)cc3)c2F)cn1 [Example 5] records pIC50 of 6 or higher.
MET
